# Tested on: pH1N1 influenza virus recovered from lungs of IS mice
# procedure.text: microbe, parasite or virus in culture
# Format: cell-based
# condition.parameters: read-out: PRA Assay (Favipiravir) IC50; virus from IS mice treated with oseltamivir 20 mg/kg + favipiravir 20 mg/kg BID, day 15; individual mice; Table 1
value.kind: IC50 (µM)

> print(dat)
                                   compound                       experimental.target  data.value
1  NC(=O)c1nc(F)cnc1O [Favipiravir, 6-fluoro-3-hydroxy-2-pyrazinecarboxamide]  pH1N1 influenza virus recovered from lungs of IS mice          14

All values here come from paper PMC6266789.
